Test system: DP1 receptor (PTGDR) (Homo sapiens)
Construct: host or cells: cAMP Hunter (DP receptor) cell line
Sequence (Q13258 whole entry): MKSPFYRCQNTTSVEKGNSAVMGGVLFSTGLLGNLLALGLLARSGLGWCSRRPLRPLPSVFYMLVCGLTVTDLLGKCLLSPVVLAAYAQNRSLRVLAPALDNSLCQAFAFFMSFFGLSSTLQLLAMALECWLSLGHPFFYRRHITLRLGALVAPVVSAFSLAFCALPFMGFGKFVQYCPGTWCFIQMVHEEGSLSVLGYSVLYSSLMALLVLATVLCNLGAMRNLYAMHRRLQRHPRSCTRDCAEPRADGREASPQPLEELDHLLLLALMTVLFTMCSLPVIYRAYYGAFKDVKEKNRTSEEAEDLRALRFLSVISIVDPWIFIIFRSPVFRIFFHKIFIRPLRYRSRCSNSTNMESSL
Method description: cAMP Hunter cell-based prostanoid receptor assay, DP receptor
Condition set: Run 1, GP1681 starting concentration 4 uM; HitHunter cAMP cell line; curve for GP1681 not fully sigmoidal
Would you mind telling me the reported EC50 of each entry?

Value wanted: EC50 (DP1 receptor (PTGDR) (Homo sapiens)) of entry CC#CCC(C)C(O)C=CC1C(O)CC2Oc3c(CCCC(=O)O)cccc3C21 (single isomer, unassigned) 1350 nM

Query for DP1 receptor (PTGDR) (Homo sapiens): what EC50 does the record show for CCCCC[C@H](O)/C=C/[C@H]1C(=O)C[C@H](O)[C@@H]1C/C=C\CCCC(=O)O [PDG2, PGD2, reference compound] ? 2.2 nM

----------
Test system: EP4 receptor (PTGER4) (Homo sapiens)
Construct: expressed in transfected cells; host or cells: PathHunter β-Arrestin PTGER4 (EP4) cell line
Method description: PathHunter β-Arrestin PTGER4 (EP4) antagonist assay against GP1681 at EC80
Format: cell-based
Condition set: 5K 37C; GP1681 at EC80; read-out: IC50 for competitive inhibition of GP1681
Readout label: IC50 (nM)
Kindly answer with a numeric value in nM, unit omitted.

What IC50 value was documented for this compound, CCOc1c2c(c(OCC)c3ccccc13)C(=O)N(c1ccc(CC(=O)NS(=O)(=O)c3ccccc3)cc1)C2 [GW 627368X] ? 44.2

Which measured IC50 value corresponds to `CCCCc1nn(-c2ccccc2C(F)(F)F)c(=O)n1Cc1ccc(-c2ccccc2S(=O)(=O)NC(=O)c2sccc2C)cc1` ? 33.9

----------
Test system: EP4 receptor (PTGER4) (Homo sapiens, UniProt P35408)
Construct: expressed in transfected cells; host or cells: PathHunter β-Arrestin PTGER4 (EP4) cell line
Sequence (P35408 whole entry): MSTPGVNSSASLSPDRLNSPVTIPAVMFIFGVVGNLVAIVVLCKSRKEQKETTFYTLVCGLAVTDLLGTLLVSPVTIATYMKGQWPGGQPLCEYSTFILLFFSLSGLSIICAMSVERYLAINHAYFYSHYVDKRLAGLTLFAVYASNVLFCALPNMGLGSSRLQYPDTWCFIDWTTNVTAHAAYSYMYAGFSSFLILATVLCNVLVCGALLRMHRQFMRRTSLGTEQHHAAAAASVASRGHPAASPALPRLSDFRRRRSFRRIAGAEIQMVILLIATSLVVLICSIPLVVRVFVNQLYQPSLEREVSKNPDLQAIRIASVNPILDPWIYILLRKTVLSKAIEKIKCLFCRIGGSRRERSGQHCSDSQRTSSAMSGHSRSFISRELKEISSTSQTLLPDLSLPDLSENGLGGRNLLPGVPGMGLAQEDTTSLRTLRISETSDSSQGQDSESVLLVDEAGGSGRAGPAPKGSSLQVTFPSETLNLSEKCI
Method description: PathHunter β-Arrestin PTGER4 (EP4) antagonist assay against GP1681 at EC80
Type: cell-based
Condition set: IC50 for competitive inhibition of GP1681, 5K 37C; GP1681 at EC80
Readout label: IC50
Kindly report the value followed by its unit.

Give IC50 (EP4 receptor (PTGER4) (Homo sapiens, UniProt P35408)) of the following molecule: `CCc1nc2c(C)nc(C)cc2n1-c1ccc(CCNC(=O)NS(=O)(=O)c2ccc(C)cc2)cc1` 26.5 nM

----------
Test system: EP4 receptor (PTGER4) (Homo sapiens)
Construct: expressed in transfected cells; host or cells: PathHunter β-Arrestin PTGER4 (EP4) cell line
Method description: PathHunter β-Arrestin PTGER4 (EP4) agonist assay, optimisation of cell density and temperature
Format: cell-based
Condition set: N = 2, 5K 37C; read-out: RC50 (μM) / EC50, agonist
Readout label: EC50 (µM)
Answer with a number only, understood to be in µM.

Which measured EC50 value corresponds to CC#CCC(C)C(O)C=CC1C(O)CC2Oc3c(CCCC(=O)O)cccc3C21 (single isomer, unassigned) [GP1681, esuberaprost] ? 16.2

----------
Test system: IP receptor (PTGIR) (Homo sapiens, UniProt P43119)
Construct: host or cells: PathHunter beta-arrestin cell line
Sequence (P43119 whole entry): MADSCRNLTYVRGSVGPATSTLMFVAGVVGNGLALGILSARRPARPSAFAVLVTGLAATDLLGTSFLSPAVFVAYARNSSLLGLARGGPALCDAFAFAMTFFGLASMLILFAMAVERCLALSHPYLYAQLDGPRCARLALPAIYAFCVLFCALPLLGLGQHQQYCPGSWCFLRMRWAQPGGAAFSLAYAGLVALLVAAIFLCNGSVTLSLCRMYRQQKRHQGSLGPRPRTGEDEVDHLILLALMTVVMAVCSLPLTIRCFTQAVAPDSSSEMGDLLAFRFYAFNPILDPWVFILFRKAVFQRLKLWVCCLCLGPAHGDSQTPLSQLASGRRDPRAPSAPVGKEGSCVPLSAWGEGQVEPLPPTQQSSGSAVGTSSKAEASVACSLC
Method description: PathHunter beta-arrestin cell-based prostanoid receptor assay, IP
Structures can show the parent of a compound that is named as a salt.
Readout label: EC50 (nM)
Numeric answer only, unit nM assumed.

Given the compound CC#CCC(C)C(O)C=CC1C(O)CC2Oc3c(CCCC(=O)O)cccc3C21 (racemic) [Beraprost, sodium salt] , what is its reported EC50? 436

Data credit: patent US12042503B2
